I'd be grateful if you could share measured Avg F635, Full Centroid for these entries.
target: KRAS (Homo sapiens, UniProt P01116); construct: His6-tagged human KRas Isoform 4B (residues 1-169); His6; made in house; host or cells: E. coli BL21(DE3), PQE80 vector; assay: B-RAP surface immunofluorescent assay, PCC ligand KRas EC50; type: binding; details: 10 μM KRas well of plate #1, pixel by pixel, full centroid
Sequence (P01116 1-169 isoform P01116-2): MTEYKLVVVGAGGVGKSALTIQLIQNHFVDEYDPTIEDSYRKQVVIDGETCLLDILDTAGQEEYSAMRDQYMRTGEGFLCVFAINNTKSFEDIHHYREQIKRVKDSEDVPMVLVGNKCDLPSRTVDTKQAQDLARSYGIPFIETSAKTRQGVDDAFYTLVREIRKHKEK

Solved cases below.
Compound	Reported Metric	Reported Result
CC(C)[C@@H]1NC(=O)[C@@H](N)Cc2cn(nn2)CCCC[C@@H](C(=O)NCCOCCOCCOCCOCCOCCC(=O)NCCNC(=O)CCCC[C@@H]2SC[C@@H]3NC(=O)N[C@@H]32)NC(=O)[C@H](Cc2ccc(O)cc2)NC(=O)[C@@H]2CCCN2C(=O)[C@H](C(C)C)NC(=O)[C@H](CCC(=O)O)NC1=O (single isomer, unassigned) [Ligand L4a, VEVPY]	Avg F635, Full Centroid	11363
CC(C)[C@@H]1NC(=O)[C@H](CCC(=O)O)NC(=O)[C@H](C(C)C)NC(=O)[C@@H](N)Cc2cn(nn2)CCCC[C@@H](C(=O)NCCOCCOCCOCCOCCOCCC(=O)NCCNC(=O)CCCC[C@@H]2SC[C@@H]3NC(=O)N[C@@H]32)NC(=O)[C@@H]2CCCN2C(=O)[C@H](Cc2ccc(O)cc2)NC1=O (single isomer, unassigned) [Ligand L5a, VEVYP]	Avg F635, Full Centroid	8341

Query block: State the recorded Avg F635, Full Centroid for this entry: CC(C)[C@@H]1NC(=O)[C@H](CCC(=O)O)NC(=O)CNC(=O)[C@@H](N)Cc2cn(nn2)CCCC[C@@H](C(=O)NCCOCCOCCOCCOCCOCCC(=O)NCCNC(=O)CCCC[C@@H]2SC[C@@H]3NC(=O)N[C@@H]32)NC(=O)[C@@H]2CCCN2C(=O)[C@H](C(C)C)NC1=O (single isomer, unassigned) [Ligand L3a, GEVVP]
Result block: 8117

----------
target: KRAS (Homo sapiens); construct: His6-tagged human KRas Isoform 4B (residues 1-169); His6; made in house; host or cells: E. coli BL21(DE3), PQE80 vector; assay: B-RAP surface immunofluorescent assay, PCC ligand KRas EC50; format: binding; conditions: 10 μM KRas well of plate #1, pixel by pixel, left part of centroid
Numbered stars: 1 amine (or outer) side, 2 acyl side, 3 side chain; on linkers, the order of the positions; unused ones are H or OH. Bridge positions count the residues as written; N and C are the ends. Square brackets hold non-standard residues; d marks the D form. Triazole bridges read from a SMILES are 1,4-linked. Peptide text beside a SMILES is read from it. * marks the point of attachment. Biotin = O=C1N[C@H]2[C@H](CS[C@H]2CCCCC(=O)*)N1; Lys(N3) = [N-]=[N+]=NCCCC[C@H](N)C(=O)O; Ethylenediamine = C(CN[*:2])N[*:1]; PEG5 = NCCOCCOCCOCCOCCOCCC(=O)O; Pra = C#CC[C@H](N)C(=O)O
I'd be grateful if you could share measured avg F635, Left Part Centroid for these entries.
Give bare numbers.

Dear reader, for each entry below, please note its avg F635, Left Part Centroid.
1. CC(C)[C@@H]1NC(=O)[C@H](CCC(=O)O)NC(=O)[C@H](C(C)C)NC(=O)[C@@H](N)Cc2cn(nn2)CCCC[C@@H](C(=O)NCCOCCOCCOCCOCCOCCC(=O)NCCNC(=O)CCCC[C@@H]2SC[C@@H]3NC(=O)N[C@@H]32)NC(=O)[C@@H]2CCCN2C(=O)[C@H](Cc2ccc(O)cc2)NC1=O (single isomer, unassigned) [Ligand L5b, VEVYP]
2. CC(C)[C@@H]1NC(=O)[C@@H](N)Cc2cn(nn2)CCCC[C@@H](C(=O)NCCOCCOCCOCCOCCOCCC(=O)NCCNC(=O)CCCC[C@@H]2SC[C@@H]3NC(=O)N[C@@H]32)NC(=O)[C@H](Cc2ccc(O)cc2)NC(=O)[C@@H]2CCCN2C(=O)[C@H](C(C)C)NC(=O)[C@H]([C@@H](C)O)NC1=O [Ligand L6] (H-[Pra]VTVPY[Lys(N3)][PEG5]-{Ethylenediamine-Biotin}; triazole 1-7)
3. NC(=O)CC[C@@H]1NC(=O)[C@@H](N)Cc2cn(nn2)CCCC[C@@H](C(=O)NCCOCCOCCOCCOCCOCCC(=O)NCCNC(=O)CCCC[C@@H]2SC[C@@H]3NC(=O)N[C@@H]32)NC(=O)[C@H](Cc2ccc(O)cc2)NC(=O)[C@H](Cc2ccccc2)NC(=O)[C@H](CC(N)=O)NC(=O)[C@H](CC(=O)O)NC1=O (single isomer, unassigned) [Ligand L9b, QDNFY]

Result block:
[31947, 15645, 39380]

Dear reader, for each entry below, please note its avg F635, Left Part Centroid.
1. CC(C)[C@@H]1NC(=O)[C@@H](N)Cc2cn(nn2)CCCC[C@@H](C(=O)NCCOCCOCCOCCOCCOCCC(=O)NCCNC(=O)CCCC[C@@H]2SC[C@@H]3NC(=O)NC32)NC(=O)[C@H](Cc2ccc(O)cc2)NC(=O)[C@@H]2CCCN2C(=O)[C@H](C(C)C)NC(=O)[C@H](CCC(N)=O)NC1=O (single isomer, unassigned) [Ligand L7a, VQVPY]
2. CCC(C)[C@@H]1NC(=O)CNC(=O)[C@H](Cc2cnc[nH]2)NC(=O)[C@@H](N)Cc2cn(nn2)CCCC[C@@H](C(=O)NCCOCCOCCOCCOCCOCCC(=O)NCCNC(=O)CCCC[C@@H]2SC[C@@H]3NC(=O)N[C@@H]32)NC(=O)CNC(=O)[C@H](C(C)C)NC1=O (single isomer, unassigned) [Ligand L1b, HGIVG]
3. CC(C)[C@@H]1NC(=O)[C@@H](N)Cc2cn(nn2)CCCC[C@@H](C(=O)NCCOCCOCCOCCOCCOCCC(=O)NCCNC(=O)CCCC[C@@H]2SC[C@@H]3NC(=O)N[C@@H]32)NC(=O)[C@H](Cc2ccc(O)cc2)NC(=O)[C@@H]2CCCN2C(=O)[C@H](C(C)C)NC(=O)[C@H](CCC(=O)O)NC1=O (single isomer, unassigned) [Ligand L4b, VEVPY]
4. CCC(C)[C@@H]1NC(=O)CNC(=O)[C@H](Cc2cnc[nH]2)NC(=O)[C@@H](N)Cc2cn(nn2)CCCC[C@@H](C(=O)NCCOCCOCCOCCOCCOCCC(=O)NCCNC(=O)CCCC[C@@H]2SC[C@@H]3NC(=O)N[C@@H]32)NC(=O)CNC(=O)[C@H](C(C)C)NC1=O (single isomer, unassigned) [Ligand L1a, HGIVG]
5. CC(C)[C@@H]1NC(=O)[C@@H](N)Cc2cn(nn2)CCCC[C@@H](C(=O)NCCOCCOCCOCCOCCOCCC(=O)NCCNC(=O)CCCC[C@@H]2SC[C@@H]3NC(=O)NC32)NC(=O)[C@H](Cc2ccc(O)cc2)NC(=O)[C@@H]2CCCN2C(=O)[C@H](C(C)C)NC(=O)[C@H](CCC(N)=O)NC1=O (stereo partly drawn) [Ligand L7, VQVPY]
6. CC(C)[C@@H]1NC(=O)[C@H](CCC(=O)O)NC(=O)CNC(=O)[C@@H](N)Cc2cn(nn2)CCCC[C@@H](C(=O)NCCOCCOCCOCCOCCOCCC(=O)NCCNC(=O)CCCC[C@@H]2SC[C@@H]3NC(=O)N[C@@H]32)NC(=O)[C@@H]2CCCN2C(=O)[C@H](C(C)C)NC1=O (single isomer, unassigned) [Ligand L3a, GEVVP]
7. CC(C)[C@@H]1NC(=O)[C@H](CCC(=O)O)NC(=O)[C@H](C(C)C)NC(=O)[C@@H](N)Cc2cn(nn2)CCCC[C@@H](C(=O)NCCOCCOCCOCCOCCOCCC(=O)NCCNC(=O)CCCC[C@@H]2SC[C@@H]3NC(=O)N[C@@H]32)NC(=O)[C@@H]2CCCN2C(=O)[C@H](Cc2ccc(O)cc2)NC1=O (single isomer, unassigned) [Ligand L5a, VEVYP]

Result block:
1. 32020
2. 21889
3. 23307
4. 17838
5. 48599
6. 7137
7. 7918

Dear reader, for each entry below, please note its avg F635, Left Part Centroid.
1. NC(=O)CC[C@@H]1NC(=O)[C@@H](N)Cc2cn(nn2)CCCC[C@@H](C(=O)NCCOCCOCCOCCOCCOCCC(=O)NCCNC(=O)CCCC[C@@H]2SC[C@@H]3NC(=O)N[C@@H]32)NC(=O)[C@H](Cc2ccc(O)cc2)NC(=O)[C@H](Cc2ccccc2)NC(=O)[C@H](CC(N)=O)NC(=O)[C@H](CC(=O)O)NC1=O (single isomer, unassigned) [Ligand L9a, QDNFY]
2. CC(C)[C@@H]1NC(=O)[C@H](CCC(=O)O)NC(=O)CNC(=O)[C@@H](N)Cc2cn(nn2)CCCC[C@@H](C(=O)NCCOCCOCCOCCOCCOCCC(=O)NCCNC(=O)CCCC[C@@H]2SC[C@@H]3NC(=O)N[C@@H]32)NC(=O)[C@@H]2CCCN2C(=O)[C@H](C(C)C)NC1=O (single isomer, unassigned) [Ligand L3b, GEVVP]

Result block:
[14966, 15070]
